These measurements were taken from patent US8410106B2.

Hi there, I'd appreciate the recorded chromatographic logP for every entry that follows.
assay: logP determination by HPLC on reversed-phase columns (C 18), EEC Directive 79/831 Annex V.A8; assay type: physicochemical; conditions: HPLC, reversed-phase C 18; table value without method mark; read-out: logP
Answers are plain numbers.

# Structure, chromatographic logP
records = [
    ("COC(=O)N(C)NC(=O)c1cc(C#N)cc(C)c1NC(=O)c1cc(Cn2nnc(C(F)(F)C(F)(F)F)n2)nn1-c1ncccc1Cl", 2.97),
    ("COC(=O)N(C)NC(=O)c1cc(Cl)cc(C)c1NC(=O)c1cc(Cn2cnc(C(F)(F)F)c2C(F)(F)F)nn1-c1ncccc1Cl", 3.08),
]

Now let's try a different one.
Need chromatographic logP, item COC(=O)N(C)NC(=O)c1cc(C#N)cc(C)c1NC(=O)c1cc(Cn2nnc(C(F)(F)F)n2)nn1-c1ccccc1Cl
2.97

* * *

test system: green peach aphid (Myzus persicae); assay: Myzus test (MYZUPE spray treatment); type: in vivo; details: in Brassica rapa, foliar, 144 h, read-out: activity (aphids killed)
Attribute measured: pest or weed control at 100 g/ha (%)
Give bare numbers, in %.

Recorded pest or weed control at 100 g/ha, per entry:
# Structure, Measurement
measured = [
    ("COC(=O)N(C)NC(=O)c1cc(C#N)cc(C)c1NC(=O)c1cc(Cn2nnc(C(F)F)n2)nn1-c1ncccc1Cl", 100),
    ("COC(=O)N(C)NC(=O)c1cc(I)cc(C)c1NC(=O)c1cc(Cn2nnc(C(F)(F)C(F)(F)C(F)(F)F)n2)nn1-c1ncccc1Cl", 80),
    ("COC(=O)N(C)NC(=O)c1cc(Cl)cc(Cl)c1NC(=O)c1cc(Cn2nc(C(F)(F)F)nc2C)nn1-c1ncccc1Cl", 90),
    ("COC(=O)N(C)NC(=O)c1cc(Cl)cc(C)c1NC(=O)c1cc(Cn2nnc(C(F)(F)F)n2)nn1-c1ncccc1Cl", 100),
    ("COC(=O)N(C)NC(=O)c1cc(Cl)cc(C)c1NC(=O)c1cc(Cn2cc([N+](=O)[O-])c(C(F)(F)F)n2)nn1-c1ncccc1Cl", 90),
]

For each entry beneath this line, provide reported pest or weed control at 100 g/ha.
1. COC(=O)N(C)NC(=O)c1cc(Cl)cc(C)c1NC(=O)c1cc(Cn2cc(C(F)(F)F)nn2)nn1-c1ncccc1Cl
2. COC(=O)N(C)NC(=O)c1cc(Br)cc(C)c1NC(=O)c1cc(Cn2nnc(C(F)(F)C(F)(F)F)n2)nn1-c1ncccc1Cl
3. COC(=O)N(C)NC(=O)c1cc(Cl)cc(C)c1NC(=O)c1cc(Cn2nnc(C(F)(F)C(F)(F)F)n2)nn1-c1ncccc1Cl
4. COC(=O)N(C)NC(=O)c1cc(I)cc(C)c1NC(=O)c1cc(Cn2nnc(C(F)(F)F)n2)nn1-c1ncccc1Cl
5. COC(=O)N(C)NC(=O)c1cc(Cl)cc(Cl)c1NC(=O)c1cc(Cn2ncc(C(F)(F)F)n2)nn1-c1ncccc1Cl
6. COC(=O)N(C)NC(=O)c1cc(C#N)cc(C)c1NC(=O)c1cc(Cn2nnc(C(F)(F)F)n2)nn1-c1ncccc1Cl

100
100
100
100
100
100

* * *

Hi there, I'd appreciate the recorded chromatographic logP for every entry that follows.
test: logP determination by HPLC on reversed-phase columns (C 18), EEC Directive 79/831 Annex V.A8; type: physicochemical

Recorded chromatographic logP, per entry:
# Structure, chromatographic logP
measured = [
    ("COC(=O)N(C)NC(=O)c1cc(Cl)cc(C)c1NC(=O)c1cc(Cn2ncc(C(F)(F)F)n2)nn1-c1ncccc1Cl", 2.94),
    ("COC(=O)N(C)N(C)C(=O)c1cc(Cl)cc(C)c1NC(=O)c1cc(Cn2cc(C(C)(C)C)nn2)nn1-c1ncccc1Cl", 2.98),
    ("COC(=O)N(C)NC(=O)c1cc(Cl)cc(C)c1NC(=O)c1cc(Cn2nc(C(F)F)cc2C(F)F)nn1-c1ncccc1Cl", 2.91),
    ("COC(=O)N(C)NC(=O)c1cc(Cl)cc(C)c1NC(=O)c1cc(Cn2nc(C)c(Br)c2C)nn1-c1ncccc1Cl", 2.97),
]

Now let's try a different one.
Need chromatographic logP, item COC(=O)N(C)NC(=O)c1cc(I)cc(C)c1NC(=O)c1cc(Cn2ccc(C(F)(F)F)n2)nn1-c1ncccc1Cl
3.01
